# PROTOCOL SUMMARY: binders of probe aHhip on microarray, primary screen, stem cell growth factor project, biochemical, small-molecule microarray, fluorescence 635/667 (AID 1087);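 further: score merges spot fluorescence at 667nm with spot signal to noise ratio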
# COND: higher = more signal
MEASURE NAME: composite z-score
Write the number on its own, no unit after it.

Previously resolved entries follow.
{"COMPOUND": "C[C@]12C(=O)N(CCO)[C@@H]3C(=O)N(c4ccc(Cl)cc4)CC=CC31O[C@@H]1/C=C\\CCCOC(=O)C12 (stereo partly drawn)", "RESULT": -0.132}
{"COMPOUND": "COc1cc2c(cc1O)C(C)N(Cc1sc3ccccc3c1Cl)CC2 (stereo not drawn)", "RESULT": -0.0994}
{"COMPOUND": "Cc1ccc(S(=O)(=O)N2[C@@H](c3ccccc3)C(C(=O)O)=C[C@H]2C(C)(C)C)cc1", "RESULT": -0.156}

Exam item: # return recorded composite z-score for input C[C@]1(C(=O)NCC(F)(F)F)c2ccccc2C(=O)N(Cc2cc(C(F)(F)F)cc(C(F)(F)F)c2)[C@H]1c1ccc(CO)cc1
Marked response: -0.0994

Exam item: # return recorded composite z-score for input COCCOC(=O)N1C(=O)[C@@]2(c3cc(C#CCNC(N)=O)ccc31)[C@H](c1ccc(O)cc1)N1[C@H](c3ccccc3)[C@H](c3ccccc3)OC(=O)[C@H]1[C@@H]2C(=O)N1CCc2cc(OC)c(OC)cc2C1
Marked response: -0.0427

Exam item: # return recorded composite z-score for input CCCCC=C[C@@H](NC(=O)C(C)(C)C)c1ccccc1
Marked response: 0.388
